The measurements presented in this section are drawn from BigSolDB 2.1.

- SETUP CONDITIONS: in ethyl acetate, 313.15 K
QUANTITY KIND: solubility (mole fraction)
Format: numeric value only, no unit, no commentary.

## Task Look at this molecule and give its reported solubility (mole fraction). O=S(=O)([O-])c1cccc2ccccc12.[Na+]
## Result 0.000227

###

- SETUP CONDITIONS: in cyclohexanone, 288.15 K
QUANTITY KIND: solubility (mole fraction)
Format: numeric value only, no unit, no commentary.

## Task Look at this molecule and give its reported solubility (mole fraction). O=S(=O)([O-])c1cccc2ccccc12.[Na+]
## Result 0.00038

###

- SETUP CONDITIONS: in acetone, 298.15 K
QUANTITY KIND: solubility (mole fraction)
Format: numeric value only, no unit, no commentary.

## Task Look at this molecule and give its reported solubility (mole fraction). O=S(=O)([O-])c1cccc2ccccc12.[Na+]
## Result 0.00024

###

- SETUP CONDITIONS: in ethyl acetate, 318.15 K
QUANTITY KIND: solubility (mole fraction)
Format: numeric value only, no unit, no commentary.

## Task Look at this compound and give its reported solubility (mole fraction). O=S(=O)([O-])c1cccc2ccccc12.[Na+]
## Result 0.000269

###

- SETUP CONDITIONS: in ethyl acetate, 308.15 K
QUANTITY KIND: solubility (mole fraction)
Format: numeric value only, no unit, no commentary.

## Task Look at this compound and give its reported solubility (mole fraction). O=S(=O)([O-])c1cccc2ccccc12.[Na+]
## Result 0.000184

###

- SETUP CONDITIONS: in ethyl acetate, 323.15 K
QUANTITY KIND: solubility (mole fraction)
Format: numeric value only, no unit, no commentary.

## Task Look at this molecule and give its reported solubility (mole fraction). O=S(=O)([O-])c1cccc2ccccc12.[Na+]
## Result 0.000311

###

- SETUP CONDITIONS: in isopropanol, 278.15 K
QUANTITY KIND: solubility (mole fraction)
Format: numeric value only, no unit, no commentary.

## Task Look at this molecule and give its reported solubility (mole fraction). O=S(=O)([O-])c1cccc2ccccc12.[Na+]
## Result 0.000108

###

- SETUP CONDITIONS: in 1,4-dioxane, 318.15 K
QUANTITY KIND: solubility (mole fraction)
Format: numeric value only, no unit, no commentary.

## Task Look at this molecule and give its reported solubility (mole fraction). O=S(=O)([O-])c1cccc2ccccc12.[Na+]
## Result 0.00169

###

- SETUP CONDITIONS: in cyclohexanone, 298.15 K
QUANTITY KIND: solubility (mole fraction)
Format: numeric value only, no unit, no commentary.

## Task Look at this compound and give its reported solubility (mole fraction). O=S(=O)([O-])c1cccc2ccccc12.[Na+]
## Result 0.000603

###

- SETUP CONDITIONS: in cyclohexanone, 293.15 K
QUANTITY KIND: solubility (mole fraction)
Format: numeric value only, no unit, no commentary.

## Task Look at this molecule and give its reported solubility (mole fraction). O=S(=O)([O-])c1cccc2ccccc12.[Na+]
## Result 0.000481

###

- SETUP CONDITIONS: in cyclohexanone, 283.15 K
QUANTITY KIND: solubility (mole fraction)
Format: numeric value only, no unit, no commentary.

## Task Look at this compound and give its reported solubility (mole fraction). O=S(=O)([O-])c1cccc2ccccc12.[Na+]
## Result 0.000299

###

- SETUP CONDITIONS: in ethyl acetate, 288.15 K
QUANTITY KIND: solubility (mole fraction)
Format: numeric value only, no unit, no commentary.

## Task Look at this molecule and give its reported solubility (mole fraction). O=S(=O)([O-])c1cccc2ccccc12.[Na+]
## Result 7.34e-05

###

- SETUP CONDITIONS: in acetone, 278.15 K
QUANTITY KIND: solubility (mole fraction)
Format: numeric value only, no unit, no commentary.

## Task Look at this compound and give its reported solubility (mole fraction). O=S(=O)([O-])c1cccc2ccccc12.[Na+]
## Result 9.36e-05

###

- SETUP CONDITIONS: in cyclohexanone, 278.15 K
QUANTITY KIND: solubility (mole fraction)
Format: numeric value only, no unit, no commentary.

## Task Look at this compound and give its reported solubility (mole fraction). O=S(=O)([O-])c1cccc2ccccc12.[Na+]
## Result 0.000222

###

- SETUP CONDITIONS: in 1,4-dioxane, 288.15 K
QUANTITY KIND: solubility (mole fraction)
Format: numeric value only, no unit, no commentary.

## Task Look at this compound and give its reported solubility (mole fraction). O=S(=O)([O-])c1cccc2ccccc12.[Na+]
## Result 0.000602

###

- SETUP CONDITIONS: in ethanol, 298.15 K
QUANTITY KIND: solubility (mole fraction)
Format: numeric value only, no unit, no commentary.

## Task Look at this molecule and give its reported solubility (mole fraction). O=S(=O)([O-])c1cccc2ccccc12.[Na+]
## Result 0.000829

###

- SETUP CONDITIONS: in cyclohexanone, 313.15 K
QUANTITY KIND: solubility (mole fraction)

## Task Look at this compound and give its reported solubility (mole fraction). O=S(=O)([O-])c1cccc2ccccc12.[Na+]
## Result 0.00108

###

- SETUP CONDITIONS: in acetone, 303.15 K
QUANTITY KIND: solubility (mole fraction)

## Task Look at this compound and give its reported solubility (mole fraction). O=S(=O)([O-])c1cccc2ccccc12.[Na+]
## Result 0.000288

###

- SETUP CONDITIONS: in isopropanol, 313.15 K
QUANTITY KIND: solubility (mole fraction)
Format: numeric value only, no unit, no commentary.

## Task Look at this compound and give its reported solubility (mole fraction). O=S(=O)([O-])c1cccc2ccccc12.[Na+]
## Result 0.000727

###

- SETUP CONDITIONS: in ethyl acetate, 293.15 K
QUANTITY KIND: solubility (mole fraction)
Format: numeric value only, no unit, no commentary.

## Task Look at this molecule and give its reported solubility (mole fraction). O=S(=O)([O-])c1cccc2ccccc12.[Na+]
## Result 9.37e-05

###

- SETUP CONDITIONS: in cyclohexanone, 318.15 K
QUANTITY KIND: solubility (mole fraction)
Format: numeric value only, no unit, no commentary.

## Task Look at this compound and give its reported solubility (mole fraction). O=S(=O)([O-])c1cccc2ccccc12.[Na+]
## Result 0.00127
